Biological target: T1, mouse tissue factor pathway inhibitor (TFPI) (mouse, UniProt O54819 29-289, limits assumed)
T1 construct: Bought protein; also called mouse TFPI; mTFPI
T1 sequence (looked up): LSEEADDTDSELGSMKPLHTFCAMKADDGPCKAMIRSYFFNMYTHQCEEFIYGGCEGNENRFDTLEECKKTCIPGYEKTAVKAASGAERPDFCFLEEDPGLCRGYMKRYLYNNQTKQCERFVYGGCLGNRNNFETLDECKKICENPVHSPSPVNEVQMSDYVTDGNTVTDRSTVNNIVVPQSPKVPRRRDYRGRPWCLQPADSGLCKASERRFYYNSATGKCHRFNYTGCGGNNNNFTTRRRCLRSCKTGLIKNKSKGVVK
Experiment: ELISA, Fab on coated TFPI
pEC50: −log10 of the molar value.

BINDER | pEC50
TP-3A4 Fab (Fab, V domains shown, Human Fab from HuCal Gold, expressed in E. coli TG1) VH: QVQLVESGGGLVQPGGSLRLSCAASGFTFSSYWMHWVRQAPGKGLEWVSSISYDSSNTYYADSVKGRFTISRDNSKNTLYLQMNSLRAEDTAVYYCARYGGMDYWGQGTLVTVSS VL: DIELTQPPSVSVAPGQTARISCSGDNLRDKYASWYQQKPGQAPVLVIYSKSERPSGIPERFSGSNSGNTATLTISGTQAEDEADYYCSSYTLNPNLNYVFGGGTKLTVLG | 6.49
TP-2A5.1 Fab (Fab, V domains shown, Human Fab from HuCal Gold, expressed in E. coli TG1) VH: QVQLVESGGGLVQPGGSLRLSCAASGFTFSSYGSWVRQAPGKGLEWVSVISGSGSSTYYADSVKGRFTISRDNSKNTLYLQMNSLRAEDTAVYYCARVNISTHFDVWGQGTLVTVSS VL: DIELTQPPSVSVAPGQTARISCSGDNIPEKYVHWYQQKPGQAPVLVIHGDNNRPSGIPERFSGSNSGNTATLTISGTQAEDEADYYCQSFDAGSYFVFGGGTKLTVLG | 7.84
TP-3C2 Fab (Fab, V domains shown, Human Fab from HuCal Gold, expressed in E. coli TG1) VH: QVQLQQSGPGLVKPSQTLSLTCAISGDSVSSSSAAWSWIRQSPGRGLEWLGMIYYRSKWYNHYAVSVKSRITINPDTSKNQFSLQLNSVTPEDTAVYYCARGGSGVMDVWGQGTLVTVSS VL: DIQMTQSPSSLSASVGDRVTITCRASQSITNYLNWYQQKPGKAPKLLIYDVSNLQSGVPSRFSGSGSGTDFTLTISSLQPEDFAVYYCQQYSGYPLTFGQGTKVEIKR | 6.02
